Data provenance is patent US20150031668A1.

Would you mind telling me the reported IC50 of each entry?
Biological target: human TRPM8 (Homo sapiens)
Construct: expressed in transfected cells; host or cells: Chinese hamster ovary (CHO) cells, T-REx tetracycline-inducible expression system (Invitrogen); co-transfected with pcDNA3.1 aequorin
Experiment: Luminescence readout assay for measuring intracellular calcium (aequorin, CHO cells expressing human TRPM8; icilin, L-menthol or cold activation)
Format: cell-based
Details: CHO cells expressing human TRPM8, icilin activation (1 μM), aequorin luminescence; read-out: hTRPM8 IC50
Where a name gives a salt, the structure may show the parent alone.
The answer is to be given in nM; state only the numeric part.

Form field IC50, entry O=C(N[C@]1(c2ccc(OC(F)(F)F)cc2)CCOc2cccnc21)c1ccc2nccn2c1 [Example 240, formate] : 40.6

Form field IC50, entry O=C(N[C@]1(c2ccc(-c3ccc(N4CCOCC4)cc3)cc2)CCOc2cccnc21)c1ccc(F)cc1 : 156

Form field IC50, entry O=C(N[C@]1(c2ccc(OC(F)(F)F)c(F)c2)CCOc2cccnc21)c1ccc2nccn2c1 : 16

Form field IC50, entry O=C(N[C@]1(c2ccc(OC(F)(F)F)c(F)c2)CCOc2cccnc21)c1c[nH]c(=O)cn1 : 8

###

Target: human TRPM8 (Homo sapiens)
Construct: expressed in transfected cells; host or cells: Chinese hamster ovary (CHO) cells, T-REx tetracycline-inducible expression system (Invitrogen); co-transfected with pcDNA3.1 aequorin
Test: Luminescence readout assay for measuring intracellular calcium (aequorin, CHO cells expressing human TRPM8; icilin, L-menthol or cold activation)
Type: cell-based
Settings: CHO cells expressing human TRPM8, icilin activation (1 μM), aequorin luminescence; read-out: hTRPM8 IC50
pIC50: −log10 of the molar value.
Label fulfilled when pIC50 >= 7; otherwise not fulfilled.

Please tell me: is the compound CNC(=O)c1ccc(C(=O)N[C@]2(c3ccc(OC(F)(F)F)c(F)c3)CCOc3cccnc32)cc1C [Example 296] at or over 7 in terms of pIC50? fulfilled

Please tell me: is the compound O=C(N[C@]1(c2ccc(OC(F)(F)F)c(F)c2)CCOc2cccnc21)N1CCC(O)CC1 [Example 102] at or over 7 in terms of pIC50? not fulfilled

Please tell me: is the compound CC(O)c1ccc(C(=O)N[C@]2(c3ccc(OC(F)(F)F)c(F)c3)CCOc3cccnc32)cc1 (mixture of isomers) [Example 157] at or over 7 in terms of pIC50? fulfilled

Please tell me: is the compound O=C(O)c1ccc(C(=O)N[C@@]2(c3ccc(OC(F)(F)F)c(F)c3)COc3cccnc32)nc1 [Example 161] at or over 7 in terms of pIC50? fulfilled

###

Would you mind telling me the reported pIC50 of each entry?
Target: human TRPM8 (Homo sapiens, UniProt Q7Z2W7)
Construct: expressed in transfected cells; host or cells: Chinese hamster ovary (CHO) cells, T-REx tetracycline-inducible expression system (Invitrogen); co-transfected with pcDNA3.1 aequorin
Sequence (Q7Z2W7 whole entry): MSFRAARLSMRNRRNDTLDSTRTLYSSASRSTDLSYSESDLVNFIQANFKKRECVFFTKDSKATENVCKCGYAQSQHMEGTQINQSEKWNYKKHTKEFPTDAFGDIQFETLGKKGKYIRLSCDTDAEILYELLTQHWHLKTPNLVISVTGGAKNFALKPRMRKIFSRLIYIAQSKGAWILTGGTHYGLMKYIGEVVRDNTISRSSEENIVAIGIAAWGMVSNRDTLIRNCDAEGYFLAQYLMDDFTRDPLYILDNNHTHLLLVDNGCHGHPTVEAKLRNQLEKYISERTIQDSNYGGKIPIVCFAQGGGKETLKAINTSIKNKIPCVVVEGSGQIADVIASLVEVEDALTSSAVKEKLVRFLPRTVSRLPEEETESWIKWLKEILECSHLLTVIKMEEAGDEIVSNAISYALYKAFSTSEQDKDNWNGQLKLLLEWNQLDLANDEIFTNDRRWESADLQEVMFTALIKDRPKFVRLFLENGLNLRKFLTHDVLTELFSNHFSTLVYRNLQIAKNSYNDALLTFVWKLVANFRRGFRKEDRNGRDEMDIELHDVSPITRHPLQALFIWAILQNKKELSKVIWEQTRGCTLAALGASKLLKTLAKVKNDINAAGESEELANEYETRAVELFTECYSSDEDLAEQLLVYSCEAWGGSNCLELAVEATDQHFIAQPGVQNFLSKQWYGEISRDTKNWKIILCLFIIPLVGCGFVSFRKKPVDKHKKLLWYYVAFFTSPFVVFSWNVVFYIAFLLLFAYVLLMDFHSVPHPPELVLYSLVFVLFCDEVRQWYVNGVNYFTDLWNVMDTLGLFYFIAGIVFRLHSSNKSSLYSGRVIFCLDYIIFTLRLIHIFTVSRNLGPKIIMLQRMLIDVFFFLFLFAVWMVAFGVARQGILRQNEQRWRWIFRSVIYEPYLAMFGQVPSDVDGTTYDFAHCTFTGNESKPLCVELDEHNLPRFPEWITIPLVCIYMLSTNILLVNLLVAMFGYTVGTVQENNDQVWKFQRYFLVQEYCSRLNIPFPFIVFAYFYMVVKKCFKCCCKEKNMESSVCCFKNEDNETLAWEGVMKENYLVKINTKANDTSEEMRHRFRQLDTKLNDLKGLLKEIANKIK
Assay: Luminescence readout assay for measuring intracellular calcium (aequorin, CHO cells expressing human TRPM8; icilin, L-menthol or cold activation)
Assay type: cell-based
Conditions: CHO cells expressing human TRPM8, icilin activation (1 μM), aequorin luminescence; read-out: hTRPM8 IC50
Structures can show the parent of a compound that is named as a salt.
Give only the number. pIC50 is defined as minus log10 of concentration in molar units.

The reported pIC50 value, human TRPM8 (Homo sapiens, UniProt Q7Z2W7), for O=C(NC1(c2ccc(C(F)(F)F)cc2)CCOc2cccnc21)c1ccc2c(c1)CNC2=O (stereo not shown) [Example 80] reads 7.68

The reported pIC50 value, human TRPM8 (Homo sapiens, UniProt Q7Z2W7), for O=C(N[C@]1(c2ccc(-c3ccc(F)c(CO)c3)cc2)CCOc2cccnc21)c1ccc(F)cc1 [Example 122] reads 5.82

The reported pIC50 value, human TRPM8 (Homo sapiens, UniProt Q7Z2W7), for CC1(C)COC(c2ccc(C(=O)N[C@]3(c4ccc(OC(F)(F)F)c(F)c4)CCOc4cccnc43)cc2)=N1 [Example 168] reads 6.84

The reported pIC50 value, human TRPM8 (Homo sapiens, UniProt Q7Z2W7), for O=C(N[C@]1(c2ccc(OC(F)(F)F)cc2)CCOc2cccnc21)c1cc[nH]n1 [Example 211, formate] reads 6.47

###

Biological target: human TRPM8 (Homo sapiens)
Construct: expressed in transfected cells; host or cells: Chinese hamster ovary (CHO) cells, T-REx tetracycline-inducible expression system (Invitrogen); co-transfected with pcDNA3.1 aequorin
Assay: Luminescence readout assay for measuring intracellular calcium (aequorin, CHO cells expressing human TRPM8; icilin, L-menthol or cold activation)
Assay type: cell-based
Details: CHO cells expressing human TRPM8, icilin activation (1 μM), aequorin luminescence; read-out: hTRPM8 IC50
Counter-ions that a name gives are not always drawn.
property measured: IC50

Form field IC50, entry O=C(N[C@]1(c2ccc(OC(F)(F)F)c(F)c2)CCOc2cccnc21)c1ccc(Br)s1 : 74 nM

Form field IC50, entry Cn1ncc2cc(C(=O)N[C@]3(c4ccc(OC(F)(F)F)cc4)CCOc4cccnc43)ccc21 [Example 262, formate] : 7 nM

Form field IC50, entry Cn1ccc2cc(C(=O)N[C@]3(c4ccc(OC(F)(F)F)cc4)CCOc4cccnc43)ccc21 [Example 258, formate] : 34 nM

Form field IC50, entry O=C(N[C@]1(c2ccc(OC(F)(F)F)cc2)CCOc2cccnc21)c1cc2ccccn2n1 : 11 nM

Form field IC50, entry O=C(O)c1ccc(C(=O)N[C@]2(c3ccc(Cl)c(Cl)c3)CCOc3cccnc32)nc1 : 25 nM

Form field IC50, entry Cn1ccc2cc(C(=O)N[C@]3(c4ccc(C(F)(F)F)cc4)CCOc4cccnc43)ccc21 : 24 nM

Form field IC50, entry O=C(N[C@]1(c2ccc(OC(F)(F)F)cc2)CCOc2cccnc21)c1cnc2ccccc2n1 [Example 255, formate] : 9 nM

###

Biological target: human TRPM8 (Homo sapiens, UniProt Q7Z2W7)
Construct: expressed in transfected cells; host or cells: Chinese hamster ovary (CHO) cells, T-REx tetracycline-inducible expression system (Invitrogen); co-transfected with pcDNA3.1 aequorin
Assay: Luminescence readout assay for measuring intracellular calcium (aequorin, CHO cells expressing human TRPM8; icilin, L-menthol or cold activation)
Assay type: cell-based
Details: CHO cells expressing human TRPM8, icilin activation (1 μM), aequorin luminescence; read-out: hTRPM8 IC50
Counter-ions that a name gives are not always drawn.
property measured: IC50 (nM)
The answer is to be given in nM; state only the numeric part.

Form field IC50, entry Cc1nc(-c2ccc(C(=O)N[C@]3(c4ccc(OC(F)(F)F)cc4)CCOc4cccnc43)cc2)no1 [Example 276, formate] : 16

Form field IC50, entry COc1ccc2c(c1)C=C(C(=O)N[C@]1(c3ccc(OC(F)(F)F)cc3)CCOc3cccnc31)CO2 : 68

Form field IC50, entry O=C(Nc1cccnc1Br)N[C@]1(c2ccc(OC(F)(F)F)c(F)c2)CCOc2cccnc21 : 22

Form field IC50, entry O=C(N[C@]1(c2ccc(-c3cccc(N4CCOCC4)c3)cc2)CCOc2cccnc21)c1ccc(F)cc1 : 336

Form field IC50, entry O=C(N[C@]1(c2ccc(OC(F)(F)F)c(F)c2)CCOc2cccnc21)c1ccc(-c2ncon2)cn1 : 7

Form field IC50, entry O=C(N[C@]1(c2ccc(OC(F)(F)F)cc2)CCOc2cccnc21)c1nnc[nH]1 [Example 212, formate] : 1690

Form field IC50, entry Cn1c(C(=O)O)cc2ccc(C(=O)N[C@]3(c4ccc(OC(F)(F)F)c(F)c4)CCOc4cccnc43)cc21 : 9

Form field IC50, entry COC(=O)c1ccc(C(=O)N[C@]2(c3ccc(C(F)(F)F)cc3)CCOc3cccnc32)nc1 : 43

Form field IC50, entry O=C(NC1(c2ccc(Cl)c(Cl)c2)CCOc2cccnc21)c1ccc2[nH]c(=O)oc2c1 (stereo not drawn) : 23

Form field IC50, entry COc1ncc(-c2ccc([C@@]3(NC(=O)c4ccc(F)cc4)CCOc4cccnc43)cc2)c(OC)n1 : 299

Form field IC50, entry O=C(N[C@]1(c2ccc(C(F)(F)F)cc2)CCOc2cccnc21)c1ccc2cc[nH]c2c1 : 36

Form field IC50, entry O=C(N[C@]1(c2ccc(OC(F)(F)F)cc2)CCOc2cccnc21)c1ccc2cc[nH]c2c1 [Example 235, formate] : 35.7

Form field IC50, entry COC(=O)c1ccc(NC(=O)N[C@]2(c3ccc(OC(F)(F)F)c(F)c3)CCOc3cccnc32)cc1 : 36

Form field IC50, entry N#Cc1cncc(-c2ccc([C@@]3(NC(=O)c4ccc(F)cc4)CCOc4cccnc43)cc2)c1 : 260

Form field IC50, entry CNc1cc(C(=O)N[C@]2(c3ccc(OC(F)(F)F)c(F)c3)CCOc3cccnc32)ccc1C(=O)O : 3

Form field IC50, entry Cn1cc(C(=O)O)cc1C(=O)N[C@]1(c2ccc(OC(F)(F)F)c(F)c2)CCOc2cccnc21 : 51

Form field IC50, entry O=C(N[C@]1(c2ccc(OC(F)(F)F)cc2)CCOc2cccnc21)c1ccc2ncccc2c1 [Example 253, formate] : 4

Form field IC50, entry O=C(N[C@]1(c2ccc(OC(F)(F)F)c(F)c2)CCOc2cccnc21)c1ccc2[nH]c(=O)oc2c1 (single isomer, unassigned) : 7

Form field IC50, entry O=C(N[C@]1(c2ccc(-c3ccccc3O)cc2)CCOc2cccnc21)c1ccc(F)cc1 : 524

Form field IC50, entry O=C(N[C@]1(c2ccc(OC(F)(F)F)cc2)CCOc2cccnc21)c1ccc2nsnc2c1 [Example 269, formate] : 24

Form field IC50, entry O=C(N[C@]1(c2ccc(-c3cccnc3)cc2)CCOc2cccnc21)c1ccc(F)cc1 : 341

Form field IC50, entry O=C(N[C@]1(c2ccc(OC(F)(F)F)c(F)c2)CCOc2cccnc21)c1ccc2oc(=O)[nH]c2c1 : 4

Form field IC50, entry Cn1cc(C(=O)NC2(c3ccc(C(F)(F)F)cc3)CCOc3cccnc32)ccc1=O (stereo not drawn) : 334

Form field IC50, entry COC(=O)c1ccnc(C(=O)N[C@]2(c3ccc(OC(F)(F)F)c(F)c3)CCOc3cccnc32)c1 : 21

Form field IC50, entry O=C(N[C@]1(c2ccc(OC(F)(F)F)cc2)CCOc2cccnc21)c1cncs1 [Example 233, formate] : 222

Form field IC50, entry O=C(O)c1ccnc(C(=O)N[C@]2(c3ccc(OC(F)(F)F)c(F)c3)CCOc3cccnc32)c1 : 94

Form field IC50, entry Cn1c(C(=O)O)ccc1C(=O)N[C@]1(c2ccc(OC(F)(F)F)c(F)c2)CCOc2cccnc21 : 103

Form field IC50, entry Cn1ncc2cc(C(=O)N[C@]3(c4ccc(C(F)(F)F)cc4)CCOc4cccnc43)ccc21 : 8

Form field IC50, entry COc1cc(-c2ccc([C@@]3(NC(=O)c4ccc(F)cc4)CCOc4cccnc43)cc2)ccn1 : 88

Form field IC50, entry Cn1nc2c(c1C(=O)N[C@]1(c3ccc(OC(F)(F)F)cc3)CCOc3cccnc31)CCCC2 [Example 270, formate] : 44
